Recorded values, source patent US12129237B2.

molecular target: JNK1 (Homo sapiens); construct: purchased Carna Biosciences; assay: JNK1 biochemical assays (one or more of: time resolved fluorescence, Z'-LYTE Cascade, radioactive); settings: Table 2; JNK1 IC50 activity level; read-out: Act. Level
# IC50 per record follows
MEASURED_ENDPOINT: IC50

>>> result("CC(=O)N1CCC(Nc2ncc(C(N)=O)c(Nc3ccccc3)n2)CC1 [Example B-10]")
"1000 to 10000 nM"
>>> result("NC(=O)c1cnc(N[C@H]2CCc3ncccc3C2)nc1N[C@@H]1CCC[C@H](O)C1 [Example B-77]")
"< 200 nM"
>>> result("NC(=O)c1cnc(NCc2ccco2)nc1Nc1ccccc1 [Example B-65]")
"1000 to 10000 nM"
>>> result("CCOc1ccc(Nc2ncc(C(N)=O)c(N[C@H]3CCC[C@@H]3O)n2)cc1 [Example B-1]")
"< 200 nM"
>>> result("NC(=O)c1cnc(NCc2ccc(F)cc2F)nc1Nc1ccccc1 [Example B-57]")
"200 to 800 nM"
>>> result("CCC(C)Nc1ncc(C(N)=O)c(Nc2ccccc2)n1 (stereo not shown) [Example B-46]")
"< 200 nM"
>>> result("NC(=O)c1cnc(NCC2CCCO2)nc1Nc1ccccc1 (stereo not shown) [Example B-64]")
"200 to 800 nM"
>>> result("NC(=O)c1cnc(NCCc2ccccn2)nc1Nc1ccccc1 [Example B-63]")
"200 to 800 nM"
>>> result("NC(=O)c1cnc(NCCc2ccccc2)nc1Nc1ccccc1 [Example B-71]")
"200 to 800 nM"
>>> result("CCCNc1ncc(C(N)=O)c(Nc2ccccc2)n1 [Example B-68]")
"200 to 800 nM"
>>> result("NC(=O)c1cnc(NC2CC2)nc1Nc1ccccc1 [Example B-36]")
"< 200 nM"
>>> result("CS(=O)(=O)N[C@H]1CC[C@H](Nc2ncc(C(N)=O)c(Nc3ccccc3)n2)CC1 [Example B-5]")
"< 200 nM"
>>> result("CCC(C)CNc1ncc(C(N)=O)c(Nc2ccccc2)n1 (stereo not shown) [Example B-59]")
"< 200 nM"
>>> result("CC1(C)OCC(CNc2ncc(C(N)=O)c(Nc3ccccc3)n2)O1 (stereo not shown) [Example B-58]")
"200 to 800 nM"
>>> result("NC(=O)c1cnc(NC2CCOCC2)nc1Nc1ccc2ncccc2c1 [Example B-2]")
"< 200 nM"
>>> result("NC(=O)c1cnc(NC2CCOCC2)nc1Nc1ccccc1 [Example B-11]")
"< 200 nM"
>>> result("CCN(CC)c1ccc(Nc2ncc(C(N)=O)c(Nc3ccccc3)n2)cc1 [Example B-13]")
"< 200 nM"
>>> result("NC(=O)c1cnc(N[C@H]2CC[C@H](N)CC2)nc1Nc1ccccc1 [Example B-7]")
"< 200 nM"
>>> result("NC(=O)c1cnc(NC2CCNCC2)nc1Nc1ccccc1 [Example B-9]")
"1000 to 10000 nM"

----------
# IC50 annotations
target: JNK1 (Homo sapiens, UniProt P45983); construct: purchased Carna Biosciences; assay: JNK1 biochemical assays (one or more of: time resolved fluorescence, Z'-LYTE Cascade, radioactive); conditions: tested in one or more of the JNK1 biochemical assays; read-out: Act. Level (JNK1 biochemical assay IC50 activity level)
Sequence (P45983 whole entry): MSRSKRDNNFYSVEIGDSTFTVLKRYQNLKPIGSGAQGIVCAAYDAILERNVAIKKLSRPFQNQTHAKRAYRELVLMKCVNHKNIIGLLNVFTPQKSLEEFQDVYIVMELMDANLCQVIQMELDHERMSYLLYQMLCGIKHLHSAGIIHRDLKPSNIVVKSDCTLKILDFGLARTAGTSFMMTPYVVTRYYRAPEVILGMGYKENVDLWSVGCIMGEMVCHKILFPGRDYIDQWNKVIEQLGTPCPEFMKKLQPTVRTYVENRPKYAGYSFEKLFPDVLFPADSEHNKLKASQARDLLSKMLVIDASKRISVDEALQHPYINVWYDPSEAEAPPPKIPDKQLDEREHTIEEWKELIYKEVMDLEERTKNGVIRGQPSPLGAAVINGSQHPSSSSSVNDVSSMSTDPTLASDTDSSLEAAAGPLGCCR
MEASURED_ENDPOINT: IC50

>>> result("NC(=O)c1cnc(N[C@H]2CC[C@H](N3CCCC3)CC2)nc1N[C@@H]1CCC[C@H](O)C1")
"< 200 nM"
>>> result("C[C@H](Nc1ncc(C(N)=O)c(N[C@H]2CC[C@@H](CO)CC2)n1)C1CCCCC1")
"< 200 nM"
>>> result("CO[C@H]1CC[C@H](Nc2ncc(C(N)=O)c(N[C@H]3CC[C@H](O)CC3)n2)CC1")
"< 200 nM"
>>> result("CC(C)CC(=O)N1CCC(Nc2ncc(C(N)=O)c(NC3CCOCC3)n2)CC1")
"200 to 800 nM"
>>> result("CCO[C@H]1CC[C@@H](Nc2nc(NC(C)(C)CO)ncc2C(N)=O)CC1")
"200 to 800 nM"
>>> result("NC(=O)c1cnc(N[C@H]2CC[C@H](O)CC2)nc1NC1CC1")
"< 200 nM"
>>> result("CCO[C@H]1CC[C@H](Nc2ncc(C(N)=O)c(NC[C@H](C)O)n2)CC1")
"< 200 nM"
>>> result("CC(C)(C)Nc1ncc(C(N)=O)c(N[C@@H]2CCCC[C@H](O)C2)n1")
"< 200 nM"
>>> result("CO[C@H]1CCC[C@@H](Nc2ncc(C(N)=O)c(N[C@@H]3CCC[C@H](O)C3)n2)CC1")
"< 200 nM"
>>> result("CCO[C@H]1CC[C@@H](Nc2ncc(C(N)=O)c(N[C@H]3CCC[C@@H]3O)n2)CC1")
"800 to 1000 nM"
>>> result("CC(C)CNc1nc(N[C@H]2CC[C@H](O)CC2)ncc1C(N)=O")
"< 200 nM"
>>> result("CCO[C@H]1CC[C@H](Nc2ncc(C(N)=O)c(N[C@@H]3CCOC3)n2)CC1")
"< 200 nM"
>>> result("CCO[C@H]1CC[C@H](Nc2ncc(C(N)=O)c(N[C@@H]3CCC[C@@H]3O)n2)CC1")
"< 200 nM"
>>> result("COC[C@H]1CC[C@H](Nc2ncc(C(N)=O)c(N[C@H]3CCC(O)C3)n2)CC1 (some centres unmarked)")
"< 200 nM"
>>> result("NC(=O)c1cnc(N[C@H]2CC[C@H](OCC(F)(F)F)CC2)nc1N[C@@H]1CCCC[C@H](O)C1")
"< 200 nM"
>>> result("CC(C)Nc1ncc(C(N)=O)c(N[C@H]2CC[C@@H](NC(=O)C(C)C)CC2)n1")
"200 to 800 nM"
>>> result("NC(=O)c1cnc(N[C@H]2CC[C@H](O)CC2)nc1N[C@@H]1CCCC[C@H](O)C1")
"< 200 nM"
>>> result("C[C@]1(O)CC[C@H](Nc2ncc(C(N)=O)c(N[C@@H]3CCC[C@H](O)C3)n2)CC1")
"< 200 nM"
>>> result("CC(C)Nc1nc(N[C@H]2CC[C@H](CO)CC2)ncc1C(N)=O")
"< 200 nM"
>>> result("CCO[C@H]1CC[C@@H](Nc2nc(NC3CCN(C(=O)CC)CC3)ncc2C(N)=O)CC1")
"< 200 nM"
>>> result("CC(C)(O)[C@H]1CC[C@@H](Nc2nc(NC3CCOCC3)ncc2C(N)=O)CC1")
"< 200 nM"
>>> result("NC(=O)c1cnc(N[C@H]2CC[C@H](O)CC2)nc1N[C@@H]1CCCOC1")
"< 200 nM"
>>> result("C[C@H](Nc1ncc(C(N)=O)c(N[C@H]2CC[C@@H](O)CC2)n1)C1CCCCC1")
"< 200 nM"
>>> result("NC(=O)c1cnc(NC2CCC2)nc1N[C@H]1CC[C@@H](C(=O)NC2CC2)CC1")
"1000 to 10000 nM"
>>> result("CO[C@H]1CC[C@H](Nc2ncc(C(N)=O)c(N[C@@H]3CCCC[C@@](C)(O)C3)n2)CC1")
"< 200 nM"
>>> result("CCO[C@H]1CC[C@@H](Nc2nc(NC3CCC3)ncc2C(N)=O)CC1")
"200 to 800 nM"
>>> result("C[C@@H]1CC[C@@H](Nc2nc(NC3CCC(F)(F)CC3)ncc2C(N)=O)C[C@H]1O")
"< 200 nM"
>>> result("C[C@@H]1CC[C@@H](Nc2nc(N[C@H]3CC[C@H](O)CC3)ncc2C(N)=O)C[C@H]1O")
"< 200 nM"
>>> result("CO[C@H]1CC[C@H](Nc2ncc(C(N)=O)c(NC(C)(C)CCO)n2)CC1")
"< 200 nM"
>>> result("CC1(Nc2nc(N[C@H]3CC[C@H](O)CC3)ncc2C(N)=O)CCOCC1")
"< 200 nM"
>>> result("CO[C@H]1CC[C@H](Nc2ncc(C(N)=O)c(N[C@@H]3CCC[C@@H]3CO)n2)CC1")
"< 200 nM"
>>> result("NC(=O)c1cnc(N[C@H]2CC[C@H](OCC(F)(F)F)CC2)nc1N[C@@H]1CCC[C@H]1O")
"< 200 nM"

----------
target: JNK1 (Homo sapiens, UniProt P45983); construct: purchased Carna Biosciences; experiment: JNK1 biochemical assays (one or more of: time resolved fluorescence, Z'-LYTE Cascade, radioactive); conditions: Table 2; JNK1 IC50 activity level; read-out: Act. Level
pIC50: −log10 of the molar value.
MEASURED_ENDPOINT: pIC50

>>> result("NC(=O)c1cnc(N[C@H]2CCc3cccnc3C2)nc1N[C@@H]1CCC[C@H](O)C1 [Example B-87]")
"> 6.70"
>>> result("NC(=O)c1cnc(Nc2cccc(F)c2)nc1Nc1ccccc1 [Example B-24]")
"> 6.70"
>>> result("NC(=O)c1cnc(N[C@H]2CCCc3ccccc32)nc1N[C@@H]1CCC[C@H](O)C1 [Example B-75]")
"> 6.70"
>>> result("CCOc1cccc(Nc2ncc(C(N)=O)c(Nc3ccccc3)n2)c1 [Example B-26]")
"> 6.70"
>>> result("NC(=O)c1cnc(NCc2ccc(F)cc2)nc1Nc1ccccc1 [Example B-67]")
"6.10 to 6.70"
